system_tested: IRAK4 enzyme (Homo sapiens (Human))
Sequence (Q9NWZ3 whole entry): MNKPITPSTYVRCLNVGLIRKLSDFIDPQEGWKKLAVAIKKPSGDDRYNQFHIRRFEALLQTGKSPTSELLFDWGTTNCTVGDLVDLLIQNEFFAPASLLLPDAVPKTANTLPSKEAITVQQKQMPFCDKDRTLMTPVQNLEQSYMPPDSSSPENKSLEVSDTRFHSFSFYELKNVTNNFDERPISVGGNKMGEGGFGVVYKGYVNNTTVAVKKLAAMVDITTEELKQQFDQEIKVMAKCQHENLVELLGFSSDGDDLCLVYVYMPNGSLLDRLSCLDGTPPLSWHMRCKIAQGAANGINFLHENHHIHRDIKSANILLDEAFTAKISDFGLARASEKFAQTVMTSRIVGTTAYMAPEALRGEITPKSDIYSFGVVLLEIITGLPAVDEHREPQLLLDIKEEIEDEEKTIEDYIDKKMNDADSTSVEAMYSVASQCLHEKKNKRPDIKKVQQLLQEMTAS
experiment_notes: IRAK4 Biochemical Assay (TR-FRET, STK1 KinEASE)
Entries and their measured IC50 follow.
outcome_measure: IC50 (nM)

1. C[C@H](C#N)Nc1cc(-c2ccc3cc(C#N)cnn23)ncc1-c1nnc(N2CC3CC(C2)O3)s1; 0.45
2. CC(C)Nc1cc(-c2ccc3cc(C#N)cnn23)ncc1-c1nnc(C(=O)N2CC[C@H](NC(=O)C3CC3)C2)s1; 0.67
3. CC(=O)N1CCN(C(=O)N[C@@H]2[C@@H]3CC[C@H]2CN(c2nnc(-c4cnc(-c5ccc6cc(C#N)cnn56)cc4NC(C)C)s2)C3)CC1; 0.99
4. CC(C)Nc1cc(-c2ccc3cc(C#N)cnn23)ncc1-c1nnc(N2C[C@H]3CC[C@@H](C2)[C@@H]3NC(=O)[C@@H](C)O)s1; 1.39
